Below is a list of entries, each paired with its recorded IC50 value.
Tested on: pERK in NCI-H358 cells
Assay: Cell-based pERK HTRF assay (pERK inhibition in H358 cells)
Conditions: Homo sapiens, NCI-H358, 0.5 h, 30 min incubation

Observe how each entry below is paired with its result.
| Molecule | IC50 |
| --- | --- |
| C=CC(=O)N1CC[C@@H](N(C)c2nc(N3CC(N(C)C)C3)nc3c(F)c(-c4ccc(F)c5sc(N)c(C#N)c45)c(C(F)(F)F)cc23)[C@H]1C [Compound 80] | 100 to 1000 nM |
| CCN(c1nc(OC[C@@H]2C[C@@H](OC)CN2C)nc2c(F)c(-c3ccc(F)c4sc(N)c(C#N)c34)c(C(F)(F)F)cc12)[C@@H]1CCN(C(=O)[C@H](F)Cl)[C@@H]1C [Compound 179] | < 100 nM |
| C=CC(=O)N1CC[C@@H](N(C)c2nc(OC[C@@H]3CC4(CC4)CN3C)nc3c(F)c(-c4ccc(F)c5sc(N)c(C#N)c45)c(Cl)cc23)[C@H]1C [Compound 64] | < 100 nM |
| C=CC(=O)N1CC[C@@H](N(CC)c2nc(OC[C@@H]3CCCN3C)nc3c(F)c(-c4ccc(F)c5sc(N)c(C#N)c45)ccc23)[C@H]1C [Compound 141] | < 100 nM |

The molecule C=CC(=O)N1C[C@@H](C)N(c2nc(OC[C@@]34CCCN3C[C@H](F)C4)nc3c(F)c(-c4ccc(F)c5sc(N)c(C#N)c45)c(C(F)(F)F)cc23)C[C@@H]1C [Compound 124] , tested on pERK in NCI-H358 cells, showed IC50 of < 100 nM

Origin of measurements: patent US20260232666A1
